# assayMethodText: Oral bioavailability in Han Wistar rat at 2 mg/kg
# Assay type: ADME, organism-based
# conditionDetails: in vivo
valueType: bioavailability (%)

[[record]]
itemsmiles = "N#CC1(NC(=O)[C@@H]2CCCC[C@H]2C(=O)N2CCN(c3nc4ccccc4s3)CC2)CC1"
readoutnumber = 20

[[record]]
itemsmiles = "N#CC1(NC(=O)[C@@H]2CCCC[C@H]2C(=O)N2CCN(c3nc4cnccc4s3)CC2)CC1"
readoutnumber = 17

[[record]]
itemsmiles = "N#CC1(NC(=O)[C@@H]2CCCC[C@H]2C(=O)N2CCN(c3nc4c(s3)COCC4)CC2)CC1"
readoutnumber = 33

[[record]]
itemsmiles = "CS(=O)(=O)c1ccc2nc(N3CCN(C(=O)[C@@H]4CCCC[C@H]4C(=O)NC4(C#N)CC4)CC3)sc2c1"
readoutnumber = 3.3

